test.details: TNF-a-driven NF-kB reporter inhibitors, primary screen, selectivity assay for NOD1/NOD2 signaling inhibitor project, cell-based, HEK293T NF-kB-Luc, luminescence (AID 1852)
condition.context: TNF-a induced, 14 h, at 4 µM, active compounds read high
The campaign covered roughly 2,500 compounds. About 1,100 (44%) were called active. So high a share suggests a set chosen from earlier hits. The list shows a part of the results.
Entry class follows inhibition: 0 = under 20%, 1 = from 20% up to 90%, 2 = 90% and over

INSERT INTO results (molecule, category) VALUES
  ('Cc1ccc(Nc2nnc(-c3ccncc3)s2)c(Br)c1', 1),
  ('CC(Sc1nnc2c(n1)[nH]c1ccccc12)C(=O)N(C)C1CCCCC1 (stereo not given)', 1),
  ('COc1ccc(NC(=O)c2cccc(S(=O)(=O)Nc3ccc(Br)cc3)c2)cn1', 1),
  ('O=[N+]([O-])c1ccc(N2CCN(c3ccccc3)CC2)nc1', 0),
  ('Cc1ccc(Cc2c(C)c(C#N)c3[nH]c4ccccc4n3c2=O)cc1', 1),
  ('N=C1SC(c2ccccc2)C(=O)N1c1ncc(Cc2ccccc2)s1 (stereo not given)', 2),
  ('O=C(COc1cccc2ccccc12)Nc1ccc(Cl)cc1C(=O)O', 0),
  ('Cc1cc(C(=O)Nc2ccccc2C(=O)O)ccc1NC(=O)COc1ccccc1Cl', 0),
  ('CC1Cc2ccccc2N1C(=S)NC(=O)c1cccc(Br)c1 (stereo not given)', 2),
  ('COc1ccc(/C=C2\Sc3ccc(C(=O)N4CCN(Cc5ccccc5)CC4)cc3N(C)C2=O)cc1OC', 1),
  ('CCOc1ccc2c(c1)C(=NNC(=O)c1ccncc1)c1cc(OCC)ccc1-2', 2),
  ('Cc1cccc(-n2ncc3c(N(C)C4CCCCC4)ncnc32)c1', 0),
  ('Cc1ccc(S(=O)(=O)NCc2ccc(C(=O)N3CCN(c4ccc([N+](=O)[O-])cc4)CC3)cc2)cc1', 1),
  ('COc1cccc(N2CCN(c3ncnc4c3cnn4-c3ccc(C)cc3C)CC2)c1', 2);
